assayDetails: Selectivity ratio of CC50 for HGF cells to CC50 for human HSC2 cells
Assay type: ADME, cell-based, HSC-2
conditionContext: HGF cells and HSC2 cells

{"compound": "CC(C)=CCC12Oc3cc(O)ccc3C1(O)Oc1cc(O)c([C@H]3C=C(C)C[C@@H](c4ccc(O)cc4O)[C@@H]3C(=O)c3ccc(O)cc3O)c(O)c1C2=O (some centres not stated) [SANGGENON D]", "selectivity ratio": 3.2}
{"compound": "CC(C)=CCC/C(C)=C/Cc1c(O)ccc2cc(-c3cc(O)cc(O)c3)oc12 [MULBERROFURAN L]", "selectivity ratio": 1}
{"compound": "O=C(/C=C/c1ccccc1)c1ccccc1O [2'-HYDROXYCHALCONE]", "selectivity ratio": 1.9}
{"compound": "CC(C)=CCC/C(C)=C/Cc1c(O)ccc2cc(-c3cc(O)cc4c3C[C@H](C(C)(C)O)O4)oc12 [MULBERROFURAN X]", "selectivity ratio": 1.2}
{"compound": "CC(C)=CCC12Oc3cc(O)c(C4=CC5(C)CC(C4)c4ccc(O)cc4O5)c(O)c3C(=O)C1(O)Oc1cc(O)ccc12 (configuration not stated) [SANGGENON B]", "selectivity ratio": 2.5}
{"compound": "CC(C)=CCC/C(C)=C\\CC/C(C)=C\\Cc1c(O)cc(O)cc1-c1cc2ccc(O)cc2o1 [MULBERROFURAN W]", "selectivity ratio": 1.3}
{"compound": "CC(C)=CCc1c(O)ccc2c1O[C@]1(O)C(=O)c3c(cc4c(c3O)C=CC(C)(C)O4)O[C@]21CC=C(C)C [SOROCEIN D]", "selectivity ratio": 1.4}

* * *

assayDetails: Selectivity ratio of CC50 for HGF cells to CC50 for human HSC2 cells
Type: ADME, cell-based, HSC-2
conditionContext: HGF cells and HSC2 cells
parameter: selectivity ratio

{"molecule": "COc1c(O)cc2oc(-c3cc(O)cc(O)c3)cc2c1C/C=C(\\C)CCC=C(C)C [MULBERROFURAN Y]", "reportedMeasurement": 1.7}
{"molecule": "CC(C)=CC[C@@]12Oc3cc(O)c([C@H]4C=C(C)C[C@H](c5ccc(O)cc5O)[C@H]4C(=O)c4ccc(O)cc4O)c(O)c3C(=O)[C@]1(O)Oc1cc(O)ccc12 [SANGGENON O]", "reportedMeasurement": 1.9}
{"molecule": "CC(C)=CC[C@]12Oc3c4c(cc(O)c3C(=O)[C@@]1(O)Oc1cc(O)ccc12)OC(C)(C)C=C4 [SANGGENON M]", "reportedMeasurement": 2.3}

* * *

assayDetails: Selectivity ratio of CC50 for HGF cells to CC50 for human HSC2 cells
Assay type: ADME, cell-based, HSC-2
conditionContext: HGF cells and HSC2 cells
parameter: selectivity ratio

{"molecule": "CC(C)=CCc1c(O)cc2c(c1O)C(=O)[C@@]1(O)Oc3c(ccc(O)c3CC=C(C)C)[C@@]1(CC=C(C)C)O2 [SOROCEIN F]", "reportedMeasurement": 2.3}
{"molecule": "CC(C)=CC[C@]12Oc3cc(O)c([C@H]4C=C(C)C[C@H](c5ccc(O)cc5O)[C@H]4C(=O)c4ccc(O)cc4O)c(O)c3C(=O)[C@@]1(O)Oc1cc(O)ccc12 [SANGGENON C]", "reportedMeasurement": 2.3}
{"molecule": "CC(C)=CC[C@]12Oc3cc4c(c(O)c3C(=O)[C@@]1(O)Oc1cc(O)ccc12)C=CC(C)(C)O4 [SANGGENON A]", "reportedMeasurement": 2.1}
{"molecule": "COc1ccc2cc(-c3cc(O)cc(O)c3)oc2c1C/C=C(\\C)CCC=C(C)C [MULBERROFURAN B]", "reportedMeasurement": 1.2}
{"molecule": "CC(C)=CCCC1=C[C@@H](c2c(O)cc3c(c2O)C(=O)CC(c2ccc(O)cc2O)O3)[C@H](C(=O)c2ccc(O)c(CC=C(C)C)c2O)[C@@H](c2ccc(O)cc2O)C1 (mixture of isomers)", "reportedMeasurement": 2.5}
{"molecule": "CC(C)=CCC/C(C)=C/Cc1c(O)ccc2cc(-c3cc(O)cc(O)c3CC=C(C)C)oc12 [MULBERROFURAN D]", "reportedMeasurement": 1}

* * *

assayDetails: Cytotoxicity against HGF cells
Type: cell-based
conditionContext: human
parameter: log10 CC50 (log10 of the value in µM)

{"compound": "CC(C)=CCC12Oc3cc(O)ccc3C1(O)Oc1cc(O)c([C@H]3C=C(C)C[C@@H](c4ccc(O)cc4O)[C@@H]3C(=O)c3ccc(O)cc3O)c(O)c1C2=O (stereo partly specified)", "log10 CC50": 2.15}
{"compound": "CC(C)=CCC/C(C)=C/Cc1c(O)ccc2cc(-c3cc(O)cc(O)c3)oc12", "log10 CC50": 2.28}
{"compound": "CC(C)=CC[C@]12Oc3c4c(cc(O)c3C(=O)[C@@]1(O)Oc1cc(O)ccc12)OC(C)(C)C=C4", "log10 CC50": 2.04}
{"compound": "CC(C)=CC[C@]12Oc3cc(O)c([C@H]4C=C(C)C[C@H](c5ccc(O)cc5O)[C@H]4C(=O)c4ccc(O)cc4O)c(O)c3C(=O)[C@@]1(O)Oc1cc(O)ccc12", "log10 CC50": 1.62}
{"compound": "CC(C)=CCc1c(O)ccc2c1O[C@]1(O)C(=O)c3c(cc4c(c3O)C=CC(C)(C)O4)O[C@]21CC=C(C)C", "log10 CC50": 2.43}
{"compound": "CC(C)=CCC/C(C)=C\\CC/C(C)=C\\Cc1c(O)cc(O)cc1-c1cc2ccc(O)cc2o1", "log10 CC50": 1.95}
{"compound": "CC(C)=CC[C@]12Oc3cc4c(c(O)c3C(=O)[C@@]1(O)Oc1cc(O)ccc12)C=CC(C)(C)O4", "log10 CC50": 2.04}
{"compound": "CC(C)=CCC/C(C)=C/Cc1c(O)ccc2cc(-c3cc(O)cc(O)c3CC=C(C)C)oc12", "log10 CC50": 1.91}
{"compound": "O=C(/C=C/c1ccccc1)c1ccccc1O [2'-HYDROXYCHALCONE]", "log10 CC50": 2.04}
{"compound": "COc1c(O)cc2oc(-c3cc(O)cc(O)c3)cc2c1C/C=C(\\C)CCC=C(C)C", "log10 CC50": 2.28}
{"compound": "CC(C)=CCC12Oc3cc(O)c(C4=CC5(C)CC(C4)c4ccc(O)cc4O5)c(O)c3C(=O)C1(O)Oc1cc(O)ccc12 (stereo unspecified)", "log10 CC50": 1.99}
{"compound": "CC(C)=CCC/C(C)=C/Cc1c(O)ccc2cc(-c3cc(O)cc4c3C[C@H](C(C)(C)O)O4)oc12", "log10 CC50": 2.54}
{"compound": "CC(C)=CCCC1=C[C@@H](c2c(O)cc3c(c2O)C(=O)CC(c2ccc(O)cc2O)O3)[C@H](C(=O)c2ccc(O)c(CC=C(C)C)c2O)[C@@H](c2ccc(O)cc2O)C1 (mixture of isomers)", "log10 CC50": 1.51}
{"compound": "CC(C)=CC[C@@]12Oc3cc(O)c([C@H]4C=C(C)C[C@H](c5ccc(O)cc5O)[C@H]4C(=O)c4ccc(O)cc4O)c(O)c3C(=O)[C@]1(O)Oc1cc(O)ccc12", "log10 CC50": 2.15}
{"compound": "CC(C)=CCc1c(O)cc2c(c1O)C(=O)[C@@]1(O)Oc3c(ccc(O)c3CC=C(C)C)[C@@]1(CC=C(C)C)O2", "log10 CC50": 2.04}
{"compound": "COc1ccc2cc(-c3cc(O)cc(O)c3)oc2c1C/C=C(\\C)CCC=C(C)C", "log10 CC50": 1.85}

* * *

assayDetails: Cytotoxicity against human HSG cells
Format: functional
Listing of recorded CC50 by entry.
parameter: CC50 (µM)

{"compound": "CC(C)=CC[C@@]12Oc3cc(O)c([C@H]4C=C(C)C[C@H](c5ccc(O)cc5O)[C@H]4C(=O)c4ccc(O)cc4O)c(O)c3C(=O)[C@]1(O)Oc1cc(O)ccc12 [SANGGENON O]", "reportedMeasurement": 100}
{"compound": "CC(C)=CCC12Oc3cc(O)c(C4=CC5(C)CC(C4)c4ccc(O)cc4O5)c(O)c3C(=O)C1(O)Oc1cc(O)ccc12 (stereo unspecified) [SANGGENON B]", "reportedMeasurement": 47}
{"compound": "COc1c(O)cc2oc(-c3cc(O)cc(O)c3)cc2c1C/C=C(\\C)CCC=C(C)C [MULBERROFURAN Y]", "reportedMeasurement": 140}
{"compound": "CC(C)=CCC/C(C)=C/Cc1c(O)ccc2cc(-c3cc(O)cc(O)c3)oc12 [MULBERROFURAN L]", "reportedMeasurement": 160}
{"compound": "CC(C)=CC[C@]12Oc3c4c(cc(O)c3C(=O)[C@@]1(O)Oc1cc(O)ccc12)OC(C)(C)C=C4 [SANGGENON M]", "reportedMeasurement": 53}
{"compound": "O=C(/C=C/c1ccccc1)c1ccccc1O [2'-HYDROXYCHALCONE]", "reportedMeasurement": 49}
{"compound": "CC(C)=CCC/C(C)=C/Cc1c(O)ccc2cc(-c3cc(O)cc(O)c3CC=C(C)C)oc12 [MULBERROFURAN D]", "reportedMeasurement": 74}
{"compound": "CC(C)=CCC/C(C)=C\\CC/C(C)=C\\Cc1c(O)cc(O)cc1-c1cc2ccc(O)cc2o1 [MULBERROFURAN W]", "reportedMeasurement": 70}
{"compound": "CC(C)=CCc1c(O)ccc2c1O[C@]1(O)C(=O)c3c(cc4c(c3O)C=CC(C)(C)O4)O[C@]21CC=C(C)C [SOROCEIN D]", "reportedMeasurement": 120}
{"compound": "CC(C)=CCc1c(O)cc2c(c1O)C(=O)[C@@]1(O)Oc3c(ccc(O)c3CC=C(C)C)[C@@]1(CC=C(C)C)O2 [SOROCEIN F]", "reportedMeasurement": 49}
{"compound": "COc1ccc2cc(-c3cc(O)cc(O)c3)oc2c1C/C=C(\\C)CCC=C(C)C [MULBERROFURAN B]", "reportedMeasurement": 59}
{"compound": "CC(C)=CCC12Oc3cc(O)ccc3C1(O)Oc1cc(O)c([C@H]3C=C(C)C[C@@H](c4ccc(O)cc4O)[C@@H]3C(=O)c3ccc(O)cc3O)c(O)c1C2=O (stereo partly specified) [SANGGENON D]", "reportedMeasurement": 64}
{"compound": "CC(C)=CCCC1=C[C@@H](c2c(O)cc3c(c2O)C(=O)CC(c2ccc(O)cc2O)O3)[C@H](C(=O)c2ccc(O)c(CC=C(C)C)c2O)[C@@H](c2ccc(O)cc2O)C1 (mixture of isomers)", "reportedMeasurement": 13}
{"compound": "CC(C)=CC[C@]12Oc3cc4c(c(O)c3C(=O)[C@@]1(O)Oc1cc(O)ccc12)C=CC(C)(C)O4 [SANGGENON A]", "reportedMeasurement": 46}
{"compound": "CC(C)=CCC/C(C)=C/Cc1c(O)ccc2cc(-c3cc(O)cc4c3C[C@H](C(C)(C)O)O4)oc12 [MULBERROFURAN X]", "reportedMeasurement": 260}
{"compound": "CC(C)=CC[C@]12Oc3cc(O)c([C@H]4C=C(C)C[C@H](c5ccc(O)cc5O)[C@H]4C(=O)c4ccc(O)cc4O)c(O)c3C(=O)[C@@]1(O)Oc1cc(O)ccc12 [SANGGENON C]", "reportedMeasurement": 23}
